assay: chemical recovery by SPE of plasma after PDMS sampling; higher = better extraction; details: pooled human plasma; extraction method: HLB SPE of plasma after PES; equilibration time (d): 6
# if value of chemical recovery by SPE of plasma reaches 3%, tag satisfied; if it stays below, tag not satisfied

Past entries and their recorded results:
O=S(=O)(c1ccccc1)c1ccccc1 | satisfied
c1ccc(/N=N/c2ccccc2)cc1 | not satisfied
Nc1ccc(Cl)cc1 | satisfied
CC(C)(C#N)c1cc(Cn2cncn2)cc(C(C)(C)C#N)c1 | satisfied
S=C1NCCN1 | not satisfied
CCCOC(=O)c1ccc(O)cc1 | satisfied
CCCCOCCOCCOCc1cc2c(cc1CCC)OCO2 [Piperonyl butoxide] | not satisfied
O=[N+]([O-])/N=C1\NCCN1Cc1ccc(Cl)nc1 | satisfied
O=S(=O)(O)NC1CCCCC1 [Cyclamate] | satisfied
CCCCC(=O)O[C@]1(C(=O)CO)[C@@H](C)C[C@H]2[C@@H]3CCC4=CC(=O)C=C[C@]4(C)[C@@]3(F)[C@@H](O)C[C@@]21C [Betamethasone-17-valerate] | satisfied

q: Given CC(C1CC1)C(O)(Cn1cncn1)c1ccc(Cl)cc1 (stereo not drawn) , state whether its chemical recovery by SPE of plasma is at least 3%.
a: not satisfied

q: I'd appreciate it if you could say whether CC[C@H]1OC(=O)[C@H](C)[C@@H](O[C@H]2C[C@@](C)(OC)[C@@H](O)[C@H](C)O2)[C@H](C)[C@@H](O[C@@H]2O[C@H](C)C[C@H](N(C)C)[C@H]2O)[C@](C)(OC)C[C@@H](C)C(=O)[C@H](C)[C@@H](O)[C@]1(C)O has chemical recovery by SPE of plasma at least equal to 3%.
a: satisfied

q: Please tell me: is the molecule CCc1ccc(CCOc2ccc(CC3SC(=O)NC3=O)cc2)nc1 (stereo not drawn) at or over 3% in terms of chemical recovery by SPE of plasma?
a: satisfied

q: Confirm if chemical recovery by SPE of plasma reported for the molecule COc1ccc(Cl)cc1C(=O)NCCc1ccc(S(=O)(=O)NC(=O)NC2CCCCC2)cc1 [Glibenclamide] is 3% or above.
a: satisfied

q: Entry COP(=O)(OC)C(O)C(Cl)(Cl)Cl (stereo not drawn) : is its chemical recovery by SPE of plasma no less than 3%?
a: satisfied

q: I'd appreciate it if you could say whether Clc1ccc(COC(Cn2ccnc2)c2ccc(Cl)cc2Cl)c(Cl)c1 (stereo not drawn) has chemical recovery by SPE of plasma at least equal to 3%.
a: not satisfied

q: Check this molecule for chemical recovery by SPE of plasma at or above 3%: CCCCCCCCc1cccc(Nc2ccccc2)c1CCCCCCCC
a: not satisfied

q: Test whether the molecule Cc1c(C(C)C)c(=O)n(-c2ccccc2)n1C records chemical recovery by SPE of plasma of 3% or higher.
a: not satisfied

q: Is chemical recovery by SPE of plasma for CCOP(=S)(OCC)SCn1nnc2ccccc2c1=O at or above 3%?
a: not satisfied

q: Reported chemical recovery by SPE of plasma at or above 3%? Cc1cc(O)cc(C)c1[S+](C)[O-] (stereo not drawn) [Methiocarb-sulfoxide phenol]
a: satisfied

q: Check if chemical recovery by SPE of plasma >= 3% (inclusive). Item: CN(C)C(=O)Nc1ccc(Oc2ccc(Cl)cc2)cc1
a: satisfied

q: Can Brc1ccc(Oc2c(Br)cc(Br)cc2Br)c(Br)c1 be said to have chemical recovery by SPE of plasma at or above 3%?
a: not satisfied

q: Does the molecule Nc1ccc(/N=N/c2ccccc2)cc1 have recorded chemical recovery by SPE of plasma that is 3% or more?
a: satisfied

q: Reported chemical recovery by SPE of plasma reaches at least 3% for c1cc2c3c(c1)ccc1cccc(c13)C2 ?
a: not satisfied

q: Test whether the molecule C[C@H]1C[C@@H]2[C@H]([C@@H](O)C[C@@]3(C)[C@H]2CC[C@]3(O)C(=O)CO)[C@@]2(C)C=CC(=O)C=C12 records chemical recovery by SPE of plasma of 3% or higher.
a: satisfied

q: Decide: is the reported value of chemical recovery by SPE of plasma for C[Si](Cn1cncn1)(c1ccc(F)cc1)c1ccc(F)cc1 equal to or greater than 3%?
a: not satisfied

q: Say whether CCNc1nc(NC(C)(C)C)nc(SC)n1 shows chemical recovery by SPE of plasma of 3% or more.
a: not satisfied

---

Readings of chemical recovery for the listed compounds
assay: chemical recovery from spiked human plasma; higher = better extraction; conditions: pooled human plasma; extraction method: SPE only (HLB 96-well), PES comparison experiment
Give your result in % as a bare value.

Some entries whose results are on file:
C[C@@H]1C[C@H]2[C@@H]3C[C@H](F)C4=CC(=O)C=C[C@]4(C)[C@@]3(F)[C@@H](O)C[C@]2(C)[C@@]1(O)C(=O)CO | 47.9
COCCN(C(=O)C(=O)O)c1c(C)cccc1C | 51.3

As a next step, examine the compound that follows.
Form: compound = COCC(C)N(C(=O)CS(=O)(=O)O)c1c(C)csc1C (centres undefined) ; chemical recovery = 49.6

---

# chemical recovery by SPE of plasma listing for each entry below
test: chemical recovery by SPE of plasma after PDMS sampling; higher = better extraction; conditions: pooled human plasma; extraction method: HLB SPE of plasma after PES; equilibration time (d): 1
API: value field is a number in %; no unit string.

Example results:
c1ccc2c(c1)c1cccc3ccc4cccc2c4c31 [Benzo(e)pyrene] | 1.45
CN(C)c1ccc(C(=O)c2ccc(N(C)C)cc2)cc1 [Michler's ketone] | 1.38
CCc1cccc(C)c1N(C(=O)C(=O)O)C(C)COC (centres undefined) [Metolachlor OA] | 32.4

# context switch: different compound, same chemical recovery by SPE of plasma
response.value for CC(=O)Nc1ccc(S(=O)(=O)Nc2cc(C)on2)cc1 [Acetyl-sulfamethoxazole] (field: chemical recovery by SPE of plasma) = 51.7

---

assay: chemical recovery into PDMS from spiked human plasma; higher = better extraction; settings: pooled human plasma; extraction method: PES with PDMS; equilibration time (d): 6
So basically: chemical recovery into PDMS at 40% or higher? That is rule met. Lower than 40%? That is rule not met.

Clc1ccc2c(c1)CCc1cccnc1C2=C1CCNCC1 | rule not met
CO/C=C(/C(=O)OC)c1ccccc1Oc1cc(Oc2ccccc2C#N)ncn1 | rule met
CCCCC(=O)O[C@]1(C(=O)CO)[C@@H](C)C[C@H]2[C@@H]3CCC4=CC(=O)C=C[C@]4(C)[C@@]3(F)[C@@H](O)C[C@@]21C [Betamethasone-17-valerate] | rule not met
CCNc1nc(Cl)nc(NC(C)(C)C)n1 | rule met
Cc1nc(N(C)C)nc(OC(=O)N(C)C)c1C | rule not met

q: Hi team, for CC(=O)[C@@]1(O)CC[C@H]2[C@@H]3C[C@H](C)C4=CC(=O)CC[C@]4(C)[C@H]3CC[C@@]21C , is the recorded chemical recovery into PDMS at or above 40%?
a: rule met

q: Is the recorded value of chemical recovery into PDMS equal to or greater than 40% for this compound? Clc1cc(Cl)c(-c2c(Cl)ccc(Cl)c2Cl)cc1Cl
a: rule met

q: Given the entry CN1CCCC(n2nc(Cc3ccc(Cl)cc3)c3ccccc3c2=O)CC1 (stereo not drawn) , answer whether its chemical recovery into PDMS meets or surpasses 40%.
a: rule not met

---

assay: chemical recovery from spiked human plasma; higher = better extraction; conditions: pooled human plasma; extraction method: solvent precipitation (ACN + hexane)
Label scheme, based on chemical recovery: b0 = under 60%, b1 = from 60% up to 70%, b2 = 70% and over

Below are worked cases with known answers.
CC(C)(c1ccc(O)c(-c2ccccc2)c1)c1ccc(O)c(-c2ccccc2)c1 | b0
CCCCCCCCCCCCS(=O)(=O)O | b0
Clc1ccc(Cl)c(-c2cc(Cl)c(Cl)cc2Cl)c1 | b2

q: Band for CC(C)(c1cc(Br)c(O)c(Br)c1)c1cc(Br)c(O)c(Br)c1 ?
a: b0

q: Category lookup for the compound c1ccc2cc3c(cc2c1)sc1ccccc13 [Benzo[b]naphtho(2,3-d)thiophene]
a: b1

q: Bin? CC[C@@H](C(N)=O)N1CCCC1=O
a: b2

q: The entry to classify is CC(C)(Oc1ccc(Cl)cc1)C(=O)O ; which class holds it?
a: b1

---

assay: chemical recovery into PDMS from spiked human plasma; higher = better extraction; conditions: pooled human plasma; extraction method: PES with PDMS; equilibration time (d): 6
Binary classification by chemical recovery into PDMS, with 10% as an inclusive lower bound for yes (1); all other cases are no (0).

Look over these answered cases.
Clc1ccc(COC(Cn2ccnc2)c2ccc(Cl)cc2Cl)c(Cl)c1 (configuration not stated) [Miconazole] | yes (1)
CC(C1CC1)C(O)(Cn1cncn1)c1ccc(Cl)cc1 (configuration not stated) [Cyproconazole] | yes (1)
ClC=C(c1ccc(Cl)cc1)c1ccc(Cl)cc1 [4,4-DDMU] | yes (1)
Brc1cc(Br)c(Oc2cc(Br)c(Br)cc2Br)cc1Br [BDE153] | yes (1)
C/C(=N\C#N)N(C)Cc1ccc(Cl)nc1 [Acetamiprid] | yes (1)

q: Quick check: does CCOc1nc2cccc(C(=O)O)c2n1Cc1ccc(-c2ccccc2-c2nnn[nH]2)cc1 [Candesartan] have chemical recovery into PDMS greater than or equal to 10%?
a: no (0)

q: # bool: chemical recovery into PDMS of c1cc2c3c(c1)ccc1cccc(c13)C2 [4H-Cyclopenta(def)phenanthrene] >= 10%
a: yes (1)

q: Textbook exercise: given the entry c1ccc(/N=N/c2ccccc2)cc1 [Azobenzene] , state whether its chemical recovery into PDMS is greater than or equal to 10%.
a: yes (1)

q: Hello, I need to know if ClC1=C(Cl)C2(Cl)C3C4C=CC(C4)C3C1(Cl)C2(Cl)Cl (configuration not stated) [Aldrin] has measured chemical recovery into PDMS not below 10%. Thanks!
a: yes (1)

q: Hi team, for CCCc1nc2c(C)cc(-c3nc4ccccc4n3C)cc2n1Cc1ccc(-c2ccccc2C(=O)O)cc1 [Telmisartan] , is the recorded chemical recovery into PDMS at or above 10%?
a: no (0)

q: Please check the record CC[C@@]1([C@@H]2O[C@@H]([C@H]3O[C@@](O)(CO)[C@H](C)C[C@@H]3C)C[C@@H]2C)CC[C@H]([C@]2(C)CC[C@]3(C[C@H](O)[C@@H](C)[C@@H]([C@@H](C)[C@@H](OC)[C@H](C)C(=O)O)O3)O2)O1 [Monensin] and state if its chemical recovery into PDMS is at or above 10%.
a: yes (1)

q: Dear colleague, could you confirm whether O=S(=O)(c1ccc(Cl)cc1)c1ccc(Cl)cc1 [Bis(4-chlorophenyl)sulfone] has chemical recovery into PDMS at or above 10%?
a: yes (1)

q: Please indicate if the recorded chemical recovery into PDMS for CN[C@H]1CC[C@@H](c2ccc(Cl)c(Cl)c2)c2ccccc21 [Sertraline] meets or exceeds 10%.
a: no (0)

q: Say whether NC(=O)/N=C1\SCCN1Cc1ccc(Cl)nc1 [Thiacloprid amide] shows chemical recovery into PDMS of 10% or more.
a: no (0)

q: Please indicate if the recorded chemical recovery into PDMS for O=P(Oc1ccccc1)(Oc1ccccc1)Oc1ccccc1 [Triphenylphosphate] meets or exceeds 10%.
a: yes (1)

q: Assess whether reported chemical recovery into PDMS for Cc1cccc(C)c1N(Cn1cccn1)C(=O)C[S+](C)[O-] (configuration not stated) [Metazachlor BH 479-11] sits at 10% or higher.
a: yes (1)

q: Quick check: does CC(=O)N1CCN(c2ccc(OC[C@H]3CO[C@](Cn4ccnc4)(c4ccc(Cl)cc4Cl)O3)cc2)CC1 (racemic) [Ketoconazole] have chemical recovery into PDMS greater than or equal to 10%?
a: no (0)
